pIC50: −log10 of the molar value.
Consider the following pIC50 data for Serine/threonine-protein kinase pim-2 (Homo sapiens, UniProt Q9P1W9), collected from several reports.
QUANTITY_NAME: pIC50

* C[C@H]1CN(c2ccncc2NC(=O)c2ccc(F)c(-c3c(F)cc(OCCO)cc3F)n2)C[C@@H](N)[C@@H]1O | 8.92
* CN1CCCN(c2cncc(-c3cccc(CCC(=O)O)c3)n2)CC1 | 5.85
* N[C@H]1CCCN(c2ccnc3ccc(-c4cccc(-c5c(F)cccc5F)n4)cc23)C1 | 6.48
* C[C@H]1C[C@@H](c2ccncc2NC(=O)c2ccc(F)c(-c3c(F)cc4c(c3F)OCC[C@@]4(C)O)n2)C[C@@H](N)[C@@H]1O | 8.50
* C[C@@H]1C[C@H](N)C[C@H](c2ccncc2NC(=O)c2ccc(F)c(-c3c(F)ccc(OCCO)c3F)n2)C1 | 8.63
* CC(C)NC(=O)c1ccc(F)c(-c2ccc(N)c(-c3cc4c(N5CCC[C@H](N)C5)c(F)cnc4cn3)n2)c1 | 6.59
* CN1CCCN(c2cncc(-c3cncc(/C=C/C(=O)O)c3)n2)CC1 | 6.41
* C[C@H]1C[C@@H](c2ccncc2NC(=O)c2ccc(F)c(-c3c(F)cc(OCC4CCOCC4)cc3F)n2)C[C@@H](N)[C@@H]1O | 8.85
